Could you please report measured one-hybrid fitness for binding parS DNA for the items listed next?
B1: Caulobacter ParB omega fusion; a variant is named by its letters at X, in order, B8GW30 (parent)
chain: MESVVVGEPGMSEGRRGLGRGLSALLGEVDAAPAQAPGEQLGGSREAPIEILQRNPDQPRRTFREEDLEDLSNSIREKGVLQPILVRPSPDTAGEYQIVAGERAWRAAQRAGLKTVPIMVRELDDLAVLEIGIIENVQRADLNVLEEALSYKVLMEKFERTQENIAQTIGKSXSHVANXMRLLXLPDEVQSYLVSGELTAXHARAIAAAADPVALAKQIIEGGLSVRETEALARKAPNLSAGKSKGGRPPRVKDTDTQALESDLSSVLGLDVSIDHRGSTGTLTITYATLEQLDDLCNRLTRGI

Variants of: B1
assay method text: one-hybrid fitness for binding parS DNA (scaled: cognate 1, non-cognate 0); higher = stronger binding
conditions: with parS DNA site
Whole data set: some 81,000 sequences, median “one-hybrid fitness for binding parS DNA” near -0.17, cut for the highest 2% near 0.51. The full list was thinned out, with the highest values kept by preference.

Param item = PHSE ; retrieve measured one-hybrid fitness for binding parS DNA.
≤ 0.2

// repeat for RKHC and report
0.882

// repeat for RADH and report
≤ 0.2

// repeat for KPVK and report
≤ 0.2

// repeat for RKLM and report
0.272

// repeat for QQVF and report
≤ 0.2

// repeat for RMIT and report
0.752

// repeat for RADS and report
0.966

// repeat for PHQS and report
≤ 0.2

// repeat for RKHQ and report
≤ 0.2

// repeat for HSNG and report
≤ 0.2

// repeat for EWSG and report
≤ 0.2

// repeat for KAEG and report
≤ 0.2

// repeat for LSNY and report
≤ 0.2

// repeat for RANS and report
0.96

// repeat for RKSD and report
≤ 0.2

// repeat for RFQP and report
≤ 0.2

// repeat for AYCY and report
≤ 0.2

// repeat for RADP and report
≤ 0.2

// repeat for DGDV and report
≤ 0.2

// repeat for RFQT and report
0.8

// repeat for RKRC and report
0.737

Origin of measurements: a collection of fitness landscapes (doi:10.1016/j.celrep.2020.107928)
